PROTOCOL TEXT: self-splicing fitness, log relative to wild type (ln ratio); higher = more splicing; Tetrahymena group I intron in knt gene, E. coli kanamycin selection, DiMSum; sequences stand for … in CUCUCU…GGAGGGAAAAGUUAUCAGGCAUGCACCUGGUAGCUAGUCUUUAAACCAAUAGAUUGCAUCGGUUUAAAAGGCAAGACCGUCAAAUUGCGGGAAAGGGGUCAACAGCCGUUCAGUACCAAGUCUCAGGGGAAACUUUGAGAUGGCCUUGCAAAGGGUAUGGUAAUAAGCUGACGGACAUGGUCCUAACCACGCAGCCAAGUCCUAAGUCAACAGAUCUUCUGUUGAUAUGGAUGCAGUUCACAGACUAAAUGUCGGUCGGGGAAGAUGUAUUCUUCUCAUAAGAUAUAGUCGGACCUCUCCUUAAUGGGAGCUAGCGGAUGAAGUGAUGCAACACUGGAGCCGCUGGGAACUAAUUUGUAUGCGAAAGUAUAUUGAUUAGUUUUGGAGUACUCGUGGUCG;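 further: selection with 25 µg/mL kanamycin versus none on LB agar overnight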
MEASUREMENT CONTEXT: 30 °C
Heads up, the class ranges for self-splicing fitness (ln) are lo: < -3; med: ≥ -3 and < -1; hi: ≥ -1

# bin label for ACCCAGCAAUAUUACGCGCU
med

# bin label for UUUUAGCAAUAUUACGCGUU
med

# bin label for UCUUAGCAAUAUUACGUUAG
lo

# bin label for GCACAGCAAUAUUACGAGUG
lo

# bin label for GCAAAGCAAUAUUACGGUUU
med

# bin label for GAUAAGCAAUAUUACGGGGG
lo

# bin label for GAUUAGCAAUAUUACGGACA
med

# bin label for AGUUAGCAAUAUUACGUGCG
hi

# bin label for CGCUAGCAAUAUUACGCUUU
lo

# bin label for AUUUAGCAAUAUUACGGCUC
hi

# bin label for CAAGAGCAAUAUUACGUGGU
lo

# bin label for UCCCAGCAAUAUUACGUUAG
lo

# bin label for CCCGAGCAAUAUUACGGUUG
lo

# bin label for GGUAAGCAAUAUUACGACGA
hi

# bin label for UUAAAGCAAUAUUACGACAA
hi

# bin label for AUUAAGCAAUAUUACGGAAC
lo

# bin label for AACAAGCAAUAUUACGCCCC
hi

# bin label for ACCCAGCAAUAUUACGGGUA
med

# bin label for UCGAAGCAAUAUUACGGCGU
hi

# bin label for CUGAAGCAAUAUUACGUAGG
lo

# bin label for UGGAAGCAAUAUUACGCAGC
med

# bin label for UCUAAGCAAUAUUACGUGAA
med

# bin label for CACAAGCAAUAUUACGUAGG
med

# bin label for GGCGAGCAAUAUUACGUUGU
lo

# bin label for AUGUAGCAAUAUUACGAUCC
hi

# bin label for GAGAAGCAAUAUUACGCGCG
hi

# bin label for CAUUAGCAAUAUUACGCAAC
med

# bin label for GCGUAGCAAUAUUACGGCAA
hi

====

I'd be grateful if you could share measured self-splicing fitness (ln) for these entries.
PROTOCOL TEXT: self-splicing fitness, log relative to wild type (ln ratio); higher = more splicing; Tetrahymena group I intron in knt gene, E. coli kanamycin selection, DiMSum; sequences stand for … in CUCUCU…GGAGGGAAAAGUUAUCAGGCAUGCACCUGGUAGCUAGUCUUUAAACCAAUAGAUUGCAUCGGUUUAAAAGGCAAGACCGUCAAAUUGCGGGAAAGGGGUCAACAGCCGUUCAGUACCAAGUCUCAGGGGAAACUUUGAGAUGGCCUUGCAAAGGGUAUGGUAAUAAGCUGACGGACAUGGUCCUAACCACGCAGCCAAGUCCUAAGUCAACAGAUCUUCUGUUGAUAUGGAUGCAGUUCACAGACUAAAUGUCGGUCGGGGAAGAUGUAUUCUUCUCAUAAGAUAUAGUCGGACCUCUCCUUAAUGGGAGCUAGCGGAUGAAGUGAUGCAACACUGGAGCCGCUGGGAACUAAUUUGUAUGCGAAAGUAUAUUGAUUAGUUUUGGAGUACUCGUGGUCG
MEASUREMENT CONTEXT: 30 °C
// no unit string in output, number only

Identify self-splicing fitness (ln) associated with the sequence ACGUAGCAAUAUUACGAUUG
-2.78

Identify self-splicing fitness (ln) associated with the sequence AGUAAGCAAUAUUACGGCCU
0.0223

Identify self-splicing fitness (ln) associated with the sequence GCAUAGCAAUAUUACGACAA
-2.27

Identify self-splicing fitness (ln) associated with the sequence AACAAGCAAUAUUACGGCUA
-0.414

Identify self-splicing fitness (ln) associated with the sequence CCAGAGCAAUAUUACGAAGU
-4.41

Identify self-splicing fitness (ln) associated with the sequence GUUCAGCAAUAUUACGUGAG
-0.139

Identify self-splicing fitness (ln) associated with the sequence CCGGAGCAAUAUUACGGUUA
-2.44

Identify self-splicing fitness (ln) associated with the sequence AAGAAGCAAUAUUACGUCCC
-1.06

Identify self-splicing fitness (ln) associated with the sequence CCCAAGCAAUAUUACGCGAG
-3.22

Identify self-splicing fitness (ln) associated with the sequence CUCAAGCAAUAUUACGGUAA
-1.8

Identify self-splicing fitness (ln) associated with the sequence AAAAAGCAAUAUUACGUCUU
-0.301

Identify self-splicing fitness (ln) associated with the sequence CGUCAGCAAUAUUACGAACA
-0.807

Identify self-splicing fitness (ln) associated with the sequence AUGAAGCAAUAUUACGUCCA
-0.138

Identify self-splicing fitness (ln) associated with the sequence GCCAAGCAAUAUUACGCGUA
-0.871

Identify self-splicing fitness (ln) associated with the sequence UAAGAGCAAUAUUACGCCUU
-3.87

Identify self-splicing fitness (ln) associated with the sequence CGCCAGCAAUAUUACGGCUC
-0.72

====

I'd be grateful if you could share measured self-splicing fitness (ln) for these entries.
PROTOCOL TEXT: self-splicing fitness, log relative to wild type (ln ratio); higher = more splicing; Tetrahymena group I intron in knt gene, E. coli kanamycin selection, DiMSum; sequences stand for … in CUCUCU…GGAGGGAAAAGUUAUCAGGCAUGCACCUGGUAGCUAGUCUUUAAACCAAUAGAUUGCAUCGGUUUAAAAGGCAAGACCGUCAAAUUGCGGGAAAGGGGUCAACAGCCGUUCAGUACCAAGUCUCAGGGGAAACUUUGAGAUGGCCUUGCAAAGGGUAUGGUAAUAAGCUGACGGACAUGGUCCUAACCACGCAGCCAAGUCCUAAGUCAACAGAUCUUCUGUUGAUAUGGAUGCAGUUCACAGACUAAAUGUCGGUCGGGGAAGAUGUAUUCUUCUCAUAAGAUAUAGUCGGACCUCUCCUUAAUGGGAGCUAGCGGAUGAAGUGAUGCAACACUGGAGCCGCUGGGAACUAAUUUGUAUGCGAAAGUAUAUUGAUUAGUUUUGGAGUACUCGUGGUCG
MEASUREMENT CONTEXT: 30 °C
// no unit string in output, number only

Identify self-splicing fitness (ln) associated with the sequence CGGAAGCAAUAUUACGGCUG
-1.79

Identify self-splicing fitness (ln) associated with the sequence UGGAAGCAAUAUUACGCCAG
-1.55

Identify self-splicing fitness (ln) associated with the sequence ACCGAGCAAUAUUACGCUUG
-3.65

Identify self-splicing fitness (ln) associated with the sequence ACUAAGCAAUAUUACGCCGG
-1.03

Identify self-splicing fitness (ln) associated with the sequence AGCUAGCAAUAUUACGUACU
-0.454

Identify self-splicing fitness (ln) associated with the sequence GAGGAGCAAUAUUACGUAGG
-2.42

Identify self-splicing fitness (ln) associated with the sequence CCAUAGCAAUAUUACGUUAG
-3.33

Identify self-splicing fitness (ln) associated with the sequence AUAGAGCAAUAUUACGGCGA
-0.73

Identify self-splicing fitness (ln) associated with the sequence AUAUAGCAAUAUUACGGCGU
-0.109

Identify self-splicing fitness (ln) associated with the sequence CUGUAGCAAUAUUACGCUGC
-3.17

Identify self-splicing fitness (ln) associated with the sequence AGGCAGCAAUAUUACGGUCA
-0.0713

Identify self-splicing fitness (ln) associated with the sequence UGUGAGCAAUAUUACGAGGU
-3.52

Identify self-splicing fitness (ln) associated with the sequence UCUAAGCAAUAUUACGCCAU
-3.76

Identify self-splicing fitness (ln) associated with the sequence GCGGAGCAAUAUUACGUUGC
-4.4

Identify self-splicing fitness (ln) associated with the sequence AAUGAGCAAUAUUACGCGUU
-3.81

Identify self-splicing fitness (ln) associated with the sequence AUCUAGCAAUAUUACGCAUA
-2.4

Identify self-splicing fitness (ln) associated with the sequence CCACAGCAAUAUUACGGAAA
-3.47

Identify self-splicing fitness (ln) associated with the sequence GUCUAGCAAUAUUACGCGUA
-0.384

Identify self-splicing fitness (ln) associated with the sequence UUCUAGCAAUAUUACGGACC
-1.51

Identify self-splicing fitness (ln) associated with the sequence ACACAGCAAUAUUACGACUA
-1.22

Identify self-splicing fitness (ln) associated with the sequence ACGCAGCAAUAUUACGGCCU
0.271

Identify self-splicing fitness (ln) associated with the sequence UAUUAGCAAUAUUACGGUAA
-2.24

Identify self-splicing fitness (ln) associated with the sequence GGUCAGCAAUAUUACGAGAA
-1.23

Identify self-splicing fitness (ln) associated with the sequence AAAAAGCAAUAUUACGUCUA
-0.394

Identify self-splicing fitness (ln) associated with the sequence UACCAGCAAUAUUACGUAAG
-3.73

Identify self-splicing fitness (ln) associated with the sequence ACGGAGCAAUAUUACGUGGG
-3.99

Identify self-splicing fitness (ln) associated with the sequence AGGCAGCAAUAUUACGGGAC
-3.48

Identify self-splicing fitness (ln) associated with the sequence UGGUAGCAAUAUUACGGCUG
-1.99

Identify self-splicing fitness (ln) associated with the sequence UACCAGCAAUAUUACGGGGA
-1.24

Identify self-splicing fitness (ln) associated with the sequence AGUAAGCAAUAUUACGACUG
-1.45

Identify self-splicing fitness (ln) associated with the sequence CGAAAGCAAUAUUACGAAAG
-0.96

Identify self-splicing fitness (ln) associated with the sequence UCAAAGCAAUAUUACGCCUA
-2.71

Identify self-splicing fitness (ln) associated with the sequence UAUAAGCAAUAUUACGGUUG
-1.61

Identify self-splicing fitness (ln) associated with the sequence AGCUAGCAAUAUUACGGUCU
-0.425

Identify self-splicing fitness (ln) associated with the sequence AGCGAGCAAUAUUACGAGAG
-3.19

Identify self-splicing fitness (ln) associated with the sequence ACUUAGCAAUAUUACGAGGC
-3.25

Identify self-splicing fitness (ln) associated with the sequence CCGCAGCAAUAUUACGACUU
-3.51

Identify self-splicing fitness (ln) associated with the sequence GGGAAGCAAUAUUACGACAA
-2

Identify self-splicing fitness (ln) associated with the sequence GGGCAGCAAUAUUACGAACG
-1.18

Identify self-splicing fitness (ln) associated with the sequence ACAUAGCAAUAUUACGAGGU
-3.59

Identify self-splicing fitness (ln) associated with the sequence UCACAGCAAUAUUACGUGAU
-3.64

Identify self-splicing fitness (ln) associated with the sequence GGGAAGCAAUAUUACGGGCC
-2.03

Identify self-splicing fitness (ln) associated with the sequence GCCGAGCAAUAUUACGCUCU
-0.992

Identify self-splicing fitness (ln) associated with the sequence AUGUAGCAAUAUUACGCAUC
-3.66

Identify self-splicing fitness (ln) associated with the sequence ACCAAGCAAUAUUACGUGAG
-1.19

Identify self-splicing fitness (ln) associated with the sequence CUCGAGCAAUAUUACGCACG
-1.6

Identify self-splicing fitness (ln) associated with the sequence ACUAAGCAAUAUUACGCCCG
-0.735

Identify self-splicing fitness (ln) associated with the sequence CCGCAGCAAUAUUACGCUUU
-3.86

Identify self-splicing fitness (ln) associated with the sequence GCCAAGCAAUAUUACGGCAG
-3.71

Identify self-splicing fitness (ln) associated with the sequence ACGAAGCAAUAUUACGAGCA
-2.84

Identify self-splicing fitness (ln) associated with the sequence CCUUAGCAAUAUUACGUGGU
-4.41

Identify self-splicing fitness (ln) associated with the sequence CAGUAGCAAUAUUACGUCAG
-0.873

Identify self-splicing fitness (ln) associated with the sequence AUUUAGCAAUAUUACGGUUG
-2.68

Identify self-splicing fitness (ln) associated with the sequence AGCCAGCAAUAUUACGUAGG
-3.77

Identify self-splicing fitness (ln) associated with the sequence AAGCAGCAAUAUUACGUCCC
-1.01

Identify self-splicing fitness (ln) associated with the sequence CGUAAGCAAUAUUACGAUAU
-2.95

Identify self-splicing fitness (ln) associated with the sequence CACUAGCAAUAUUACGUCAC
-4.12

Identify self-splicing fitness (ln) associated with the sequence UUAUAGCAAUAUUACGCAUG
-1.67

Identify self-splicing fitness (ln) associated with the sequence AGAUAGCAAUAUUACGGUCC
-1.27

Identify self-splicing fitness (ln) associated with the sequence GCUCAGCAAUAUUACGCCUA
-0.718

Identify self-splicing fitness (ln) associated with the sequence AGCAAGCAAUAUUACGAAAC
-4.25

Identify self-splicing fitness (ln) associated with the sequence GGAAAGCAAUAUUACGGACC
-2.35

Identify self-splicing fitness (ln) associated with the sequence CCUAAGCAAUAUUACGGUUG
-3.92

Identify self-splicing fitness (ln) associated with the sequence GCGAAGCAAUAUUACGAUGA
-1.1

Identify self-splicing fitness (ln) associated with the sequence UUCGAGCAAUAUUACGAGUA
-1.57

Identify self-splicing fitness (ln) associated with the sequence AGGUAGCAAUAUUACGGGAG
-3.83

Identify self-splicing fitness (ln) associated with the sequence UCGGAGCAAUAUUACGAAUU
-2.9
